tested on: phosphorylation of Serine 473 in Akt; assay: In Vitro Phospho-Ser473 Akt Assay in MDA-MB-468 cells; format: cell-based; conditions: Homo sapiens, MDA-MB-468, read-out: IC50 values against mTOR, phospho-Ser473 Akt assay, MDA-MB-468 cells

| COMPOUND | TESTED SYSTEM | IC50 |
| --- | --- | --- |
| COc1ccc(-c2ccc3c(N4CCOC[C@@H]4C)nc(N4CC(C)CC(C)C4)nc3n2)cc1CO (stereo partly shown) [Example 18ae] | phosphorylation of Serine 473 in Akt | < 100 nM |
| C[C@H]1COCCN1c1nc(N2CCOC[C@@H]2C)c2ccc(-c3ccc(CO)cc3)nc2n1 [Example 1g] | phosphorylation of Serine 473 in Akt | < 100 nM |
| COc1ccc(-c2ccc3c(N4CCOC[C@@H]4C)nc(-c4cccc(CO)c4)nc3n2)cc1CO [Example 19c] | phosphorylation of Serine 473 in Akt | < 300 nM |
| CCCCNCc1cc(-c2ccc3c(N4CCOC[C@@H]4C)nc(N4CCOC[C@@H]4C)nc3n2)ccc1OC [Example 4ay] | phosphorylation of Serine 473 in Akt | < 100 nM |
| C[C@@H]1CN(c2nc(N3CCOC[C@@H]3C)c3ccc(-c4cccc(CO)c4)nc3n2)C[C@H](C)O1 [Example 1bx] | phosphorylation of Serine 473 in Akt | < 300 nM |
| COc1ccc(-c2ccc3c(N4CCOC[C@@H]4C)nc(N4CCOC[C@@H]4C)nc3n2)cc1CNC1CCOCC1 [Example 4aq] | phosphorylation of Serine 473 in Akt | < 100 nM |
| COc1ccc(-c2ccc3c(N4CCOC[C@@H]4C)nc(N4CCC(C(N)=O)CC4)nc3n2)cc1CO [Example 18v] | phosphorylation of Serine 473 in Akt | < 100 nM |
